system: tumour cell lines; assay: Tumour cell line viability, vital dye (trypan blue); assay type: cell-based; settings: Dosage 1.0 mg/ml
Consider the following molecules; for each one, report its Viability of tumour cells.
Give bare numbers, in %.

Reference set (4 entries):
Human α-lactalbumin+, EDTA pre-treatment + EDTA buffer, MAL Peak 2: second peak from EDTA treated human milk α-lactalbumin run with EDTA buffers on casein trained column (protein, UniProt P00709 20-142, looked up, multimeric form, second peak from EDTA treated human milk α-lactalbumin run with EDTA buffers on casein trained column) Alpha-lactalbumin: KQFTKCELSQLLKDIDGYGGIALPELICTMFHTSGYDTQAIVENNESTEYGLFQISNKLWCKSSQVPQSRNICDISCDKFLDDDITDDIMCAKKILDIKGIDYWLAHKALCTEKLEQWLCEKL | 0
Commercial human α-lactalbumin, Untreated, MAL Peak 2: second MAL peak from commercial (Sigma) human α-lactalbumin run on casein trained column (protein, UniProt P00709 20-142, looked up, multimeric form, second MAL peak from commercial (Sigma) human α-lactalbumin run on casein trained column) Alpha-lactalbumin: KQFTKCELSQLLKDIDGYGGIALPELICTMFHTSGYDTQAIVENNESTEYGLFQISNKLWCKSSQVPQSRNICDISCDKFLDDDITDDIMCAKKILDIKGIDYWLAHKALCTEKLEQWLCEKL | 0
Human α-lactalbumin+, Untreated, MAL Peak 1: first peak from human milk α-lactalbumin (ammonium sulphate precipitation), untreated, casein trained column (protein, UniProt P00709 20-142, looked up, multimeric form, first peak from human milk α-lactalbumin (ammonium sulphate precipitation), untreated, casein trained column) Alpha-lactalbumin: KQFTKCELSQLLKDIDGYGGIALPELICTMFHTSGYDTQAIVENNESTEYGLFQISNKLWCKSSQVPQSRNICDISCDKFLDDDITDDIMCAKKILDIKGIDYWLAHKALCTEKLEQWLCEKL | 79
Human α-lactalbumin+, Untreated, MAL Peak 2: second peak from human milk α-lactalbumin (ammonium sulphate precipitation), untreated, casein trained column (protein, UniProt P00709 20-142, looked up, multimeric form, second peak from human milk α-lactalbumin (ammonium sulphate precipitation), untreated, casein trained column) Alpha-lactalbumin: KQFTKCELSQLLKDIDGYGGIALPELICTMFHTSGYDTQAIVENNESTEYGLFQISNKLWCKSSQVPQSRNICDISCDKFLDDDITDDIMCAKKILDIKGIDYWLAHKALCTEKLEQWLCEKL | 95

Could you now consider this next molecule?
Human α-lactalbumin+, EDTA pre-treatment + EDTA buffer, MAL Peak 1: first peak from EDTA treated human milk α-lactalbumin run with EDTA buffers on casein trained column (protein, UniProt P00709 20-142, looked up, multimeric form, first peak from EDTA treated human milk α-lactalbumin run with EDTA buffers on casein trained column) Alpha-lactalbumin: KQFTKCELSQLLKDIDGYGGIALPELICTMFHTSGYDTQAIVENNESTEYGLFQISNKLWCKSSQVPQSRNICDISCDKFLDDDITDDIMCAKKILDIKGIDYWLAHKALCTEKLEQWLCEKL yielded Viability of tumour cells of 0
